# protein stability index values compiled below
B1: NCF4 (parent)
chain: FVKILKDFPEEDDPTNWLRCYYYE

Variants of: B1
Assay: protein stability index of a GFP-peptide fusion (GPS, HEK-293T) (PSI 1-6); higher = more stable;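 further: lentivirally expressed fusions sorted by FACS into six bins by GFP to DsRed ratio, PSI derived from sequencing read proportions per bin multiplied by bin number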
Conditions: c terminus: a fixed tail appended
When you answer, write just the number.

Solved entries (count: 3):
FVKIEKDFPEEDDPTNWLRCYYYE [L5E] | 1.96
FVKILTDFPEEDDPTNWLRCYYYE [K6T] | 1.95
FDKILKDFPEEDDPTNWLRCYYYE [V2D] | 2.05

input: Entry FVKILKDFPEEDDPTNWLRMYYYE [C20M] : reported protein stability index = ?
output: 2.02

input: Entry FVKILKDFPEEDDPTNWLRCDYYE [Y21D] : reported protein stability index = ?
output: 2.02

input: Entry FVKILKDFPEEDDPTNWLRSYYYE [C20S] : reported protein stability index = ?
output: 1.96

input: Entry FVKILKDFPEWDDPTNWLRCYYYE [E11W] : reported protein stability index = ?
output: 2.04

input: Entry FVQILKDFPEEDDPTNWLRCYYYE [K3Q] : reported protein stability index = ?
output: 2.05
